src = patent US11083725B2

Tested on: CA09
Test: microbe, parasite or virus in culture
Type: cell-based, influenza virus H1N1 strain A/CA/04/2009
Conditions: NHBE, read-out: TCID50 (per mL)

- Compound: "CC(C)CCN1c2nc(Nc3cc(F)c(O)c(F)c3)ncc2N(C)C(=O)C1C (stereo not shown)"
  log reduction at 10 µM: 0.6
- Compound: "COc1ccc(Cc2nnc(NS(=O)(=O)c3ccccc3)s2)cc1"
  log reduction at 10 µM: 0.46
- Compound: "O=CC[C@@H](O)[C@H](O)[C@H](O)CO"
  log reduction at 10 µM: 1.01
- Compound: "NC(=O)N1CCC(CC(=O)N2CCC([C@H]3c4ncc(Br)cc4CCc4cc(Cl)cc(Br)c43)CC2)CC1"
  log reduction at 10 µM: 0.28
- Compound: "Cn1c(=O)n(-c2ccc(C(C)(C)C#N)cc2)c2c3cc(-c4cnc5ccccc5c4)ccc3ncc21"
  log reduction at 10 µM: 0.97
- Compound: "CC[C@@H]1/C=C/C=C/C[C@H](C)[C@@H](O)[C@](C)(O)C(=O)[C@H](C)[C@@H](O)[C@H](C)C(=O)[C@H](C)[C@@H](O)[C@H](C)/C=C/C(=O)O[C@H]2[C@@H](C)[C@@H](CC1)O[C@@]1(CC[C@@H](C)C(CC(C)O)O1)[C@@H]2C (stereo partly shown)"
  log reduction at 10 µM: 0.66
- Compound: "Clc1ccccc1C(c1ccccc1)(c1ccccc1)n1ccnc1"
  log reduction at 10 µM: 0.9

---

This listing pairs compounds with measured Substrate use, 590 nm absorbance normalized to zero hour, 7 hr.
System: NHBE cells
Test: Biolog metabolic array: substrate use by NHBE cells with or without CA09 infection
Type: cell-based, human
Conditions: Control (uninfected) NHBE cells, Biolog PMM2, 7 hr
Quantity: Substrate use, 590 nm absorbance normalized to zero hour, 7 hr

- Compound: "OC[C@@H](O)[C@@H](O)[C@H](O)[C@H](O)CO"
  Meas value: 0.81
- Compound: "CCCCCC(=O)O"
  Meas value: 4.15
- Compound: "CCC(=O)O"
  Meas value: 1.75
- Compound: "O=C(O)[C@H](O)[C@@H](O)[C@H](O)[C@H](O)CO[C@H]1O[C@H](CO)[C@H](O)[C@H](O)[C@H]1O"
  Meas value: 0.47
- Compound: "O=C(O)CC(O)(CC(=O)O)C(=O)O"
  Meas value: 1.04
- Compound: "OC[C@H]1O[C@@](CO)(O[C@H]2O[C@H](CO)[C@@H](O)[C@H](O)[C@H]2O)[C@@H](O[C@H]2O[C@H](CO)[C@@H](O)[C@H](O)[C@H]2O)[C@@H]1O"
  Meas value: 3.32
- Compound: "O=C[C@H](O)[C@@H](O)[C@@H](O)CO"
  Meas value: 3.87
- Compound: "CC(=O)C(=O)O"
  Meas value: 1.52
- Compound: "O=C(O)CCCO [g-Hydroxy-Butyric Acid]"
  Meas value: 1.88
- Compound: "O=C[C@H](O)[C@@H](O)[C@@H](O)[C@H](O)CO"
  Meas value: 2.03

---

Tested on: NHBE cells
Test: Biolog metabolic array: substrate use by NHBE cells with or without CA09 infection
Assay type: cell-based, human
Settings: Virus (CA09-infected, MOI 1) NHBE cells, 2 hr
As shown below, each of these compounds has a reported 590 nm absorbance normalized to zero hour (substrate use), 2 hr value.
Quantity: 590 nm absorbance normalized to zero hour (substrate use), 2 hr

- Compound: "O=C(O)C[C@H](O)C(=O)O"
  Target or test system: "NHBE cells"
  Meas value: 1.19
- Compound: "CO[C@H]1O[C@H](CO)[C@H](O)[C@H](O)[C@H]1O [a-Methyl-D-Galactoside]"
  Target or test system: "NHBE cells"
  Meas value: 1.88
- Compound: "OC[C@@H](O)[C@H](O)[C@@H](O)CO"
  Target or test system: "NHBE cells"
  Meas value: 2.39
- Compound: "O=C(CO)[C@@H](O[C@H]1O[C@H](CO)[C@@H](O)[C@H](O)[C@H]1O)[C@H](O)[C@H](O)CO"
  Target or test system: "NHBE cells"
  Meas value: 0.28
- Compound: "OC[C@H]1O[C@@H]2O[C@H]3[C@H](O)[C@@H](O)[C@@H](O[C@H]4[C@H](O)[C@@H](O)[C@@H](O[C@H]5[C@H](O)[C@@H](O)[C@@H](O[C@H]6[C@H](O)[C@@H](O)[C@@H](O[C@H]7[C@H](O)[C@@H](O)[C@@H](O[C@H]1[C@H](O)[C@H]2O)O[C@@H]7CO)O[C@@H]6CO)O[C@@H]5CO)O[C@@H]4CO)O[C@@H]3CO"
  Target or test system: "NHBE cells"
  Meas value: 2.62
- Compound: "OC[C@H]1O[C@H](O[C@H]2[C@H](O)[C@@H](O)[C@H](O)O[C@@H]2CO)[C@H](O)[C@@H](O)[C@@H]1O"
  Target or test system: "NHBE cells"
  Meas value: 3.23
